# Tested on: PANC-1
# procedure_text: Cytotoxicity against human PANC1 cells assessed as reduction in cell viability measured after 48 hrs by MTS assay
# Assay type: functional, cell-based
outcome_measure: inhibition

In [3]: df
Out[3]:
                                smiles_text         recorded_value
0  O=c1c(-n2ccc3ccccc32)cnc2oc(-c3ccccc3)nn12  Dose-dependent effect
1  Cc1cc2ccccc2n1-c1cnc2oc(-c3ccc(Cl)cc3)nn2c1=O  Dose-dependent effect
2  O=c1c(-n2ccc3ccccc32)cnc2oc(-c3ccc(Cl)cc3)nn12  Dose-dependent effect
3  O=c1c(-n2ccc3ccccc32)cnc2oc(-c3ccccc3Cl)nn12  Dose-dependent effect

The molecule identified as `O=c1c(-n2ccc3ccccc32)cnc2oc(-c3ccc(Br)cc3)nn12` registered its inhibition at Dose-dependent effect
